As shown below, each of these compounds has a reported MIC value.
- Test system: Staphylococcus aureus (ATCC25923)
- METHOD SUMMARY: MIC, broth microdilution (CLSI), Staphylococcus aureus ATCC25923
- ASSAY SETUP: ATCC25923, read-out: S. aureus ("Clinical") MIC
Hey, just the number and the unit after it is fine.

Would you please look over these solved cases?
COMPOUND	MIC
NC1CCCC(C(=O)Nc2cc(C(F)(F)F)cc3nc4ccccc4nc23)C1 (centres unmarked)	25 µg/mL
O=C(Nc1cc(C(F)(F)F)cc2c1Nc1ccccc1S2)C1CCCNC1 (centres unmarked)	8 µg/mL
NC1CCCC(c2nc3cc(C(F)(F)F)cc4c3n2-c2ccccc2S4)C1 (centres unmarked)	6 µg/mL
N[C@@H]1CCC[C@H](C(=O)Nc2cc(C(F)(F)F)cc3c2Nc2ccccc2S3)C1	13 µg/mL
FC(F)(F)c1cc(NC2CCCNC2)c2c(c1)Sc1ccccc1N2 (centres unmarked)	6 µg/mL

What measured MIC is associated with NCCN(CCN)CCN1CCC(Nc2cc(C(F)(F)F)cc3c2Nc2ccccc2S3)CC1.O=C(O)C(F)(F)F on Staphylococcus aureus (ATCC25923)?
5 µg/mL

How about this compound: NC1CCCC(CC(=O)Nc2cc(C(F)(F)F)cc3c2Nc2ccccc2S3)C1.O=C(O)C(F)(F)F (centres unmarked)
17 µg/mL

Another compound: COc1ccc2[nH]c(-c3ccc4c(c3)Sc3ccccc3N4CCCN(C)C)cc2c1
3 µg/mL

###

# MIC per entry
- System: N. gonorrhoeae 612501
Write it as a number; the unit µg/mL goes unstated.

Consider the following illustrative entries.
SMILES CODE	OBSERVATION TYPE	ENDPOINT RESULT
NCCCN1c2ccccc2Sc2cc(-c3cc4ccccc4[nH]3)ccc21	MIC	2
NCCNC(=O)c1ccc2c(c1)Sc1cc(C(F)(F)F)cc(NC3CCN(CCN)CC3)c1N2	MIC	16
CC(C)NCCCN1c2ccccc2Sc2cc(-c3cc4ccccc4[nH]3)ccc21	MIC	1

Lab request: please report MIC under test system N. gonorrhoeae 612501 for CC1CCN(c2ccc3c(c2)Sc2cc(C(F)(F)F)cc(NC4CCN(CCN)CC4)c2N3)CC1.Cl.Cl
1

###

- Tested on: Escherichia coli (ATCC25922)
- METHOD SUMMARY: MIC, broth microdilution (CLSI), Escherichia coli ATCC25922
- ASSAY SETUP: ATCC25922, read-out: E. coli MIC, Table 15, NI = No inhibition
Catalogue of log10 of MIC values
Each number you see is log10 of MIC, and the unit inside the log is µg/mL.

Given the entry Cl.NCCNCCCNc1cc(C(F)(F)F)cc2c1Nc1cc(Br)ccc1S2 [compound 355] , report its measured log10 of MIC.
0.90

Now the compound Cl.Cl.NCCN1CCC(Nc2cc(C(=O)NNc3ccc(F)cc3)cc3c2Nc2ccccc2S3)CC1 [compound 280]
1.81

Another compound: NCCN1CCC(Nc2cc3c(c(C(F)(F)F)c2)Nc2ccccc2S3)CC1 [compound 252]
1.41

Likewise for Cl.NCCN1CCC(Nc2cc(C(F)(F)F)cc3c2Nc2ccc(N4CCCC(F)C4)cc2S3)CC1 (stereo not shown) [compound 318] ?
1.20

Record: Cl.Cl.NCCN1CCC(Nc2cc(C(F)(F)F)cc3c2Nc2ccc(N4CCC5(CCCC5)C4)cc2S3)CC1 [compound 322]
0.60

Entry to check: CNCCN1CCC(Nc2cc(CN)cc3c2Nc2ccccc2S3)CC1.O=C(O)C(F)(F)F [compound 224]
1.81

Now the compound Cl.NCCN1CCC(Nc2cc(C(F)(F)F)cc3c2Nc2cc(Br)ccc2S3)CC1 [compound 352]
0.90

Cool, now Clc1cc(NC2CCNCC2)c2c(c1)Sc1ccccc1N2 [compound 184]
1.32

One more compound: Cl.NCCNCCCNc1cc(C(F)(F)F)cc2c1Nc1ccc(N3CC4CCC3C4)cc1S2 (stereo not shown) [compound 350]
0.90

Quick one: COC1CCN(c2ccc3c(c2)Sc2cc(C(F)(F)F)cc(NC4CCN(CCN)CC4)c2N3)C1.Cl.Cl (stereo not shown) [compound 321]
1.51

Query CC(Nc1cc(C(F)(F)F)cc2c1Nc1ccccc1S2)C1CCCC(N)C1 (stereo not shown) [compound 190] next
1.41

Then this compound: O=C(CCN1CCNCC1)Nc1cc(C(F)(F)F)cc2c1Nc1ccccc1S2 [compound 101]
1.81

Also, CC1(C)CCCN(c2ccc3c(c2)Sc2cc(C(F)(F)F)cc(NC4CCN(CCN)CC4)c2N3)C1.Cl.Cl [compound 305] please.
0.60

Okay, and FC(F)(F)c1cc(NC2CC3CCC(C2)N3)c2c(c1)Sc1ccccc1N2 (stereo not shown) [compound 290] ?
1.51

Try NC1CCC(C(=O)Nc2cc(C(F)(F)F)cc3c2Nc2ccccc2S3)CC1 (stereo not shown) [compound 95] next.
1.81

Next compound up: Cl.NCCCNc1cc(C(F)(F)F)cc2c1Nc1ccc(N3CCCC3)cc1S2 [compound 324]
1.51

Another compound: CN(C)C1CCN(c2ccc3c(c2)Sc2cc(C(F)(F)F)cc(NC4CCN(CCN)CC4)c2N3)C1.Cl.Cl (stereo not shown) [compound 299]
1.51

Similarly, FC(F)(F)c1cc(NC2CNC2)c2c(c1)Sc1ccccc1N2 [compound 193] ?
1.34

Param item: NCCN1CCC(C(=O)Nc2cc(C(F)(F)F)cc3c2Nc2ccccc2S3)CC1 [compound 199]
1.45

// same read-out, input: NC1CCC(Nc2cc(C(F)(F)F)cc3c2Nc2ccccc2S3)CC1 (stereo not shown) [compound 180]
1.15

Param item: Cl.NCCCNc1cc(C(F)(F)F)cc2c1Nc1ccc(Br)cc1S2 [compound 333]
1.20

###

- Test system: H. pylori ATCC 43504
OBSERVATION TYPE: MIC (µg/mL)
Report the value in µg/mL with no unit label.

MOLECULE	STUDY SYSTEM	UNITS LABEL	MIC
CC1(C)CCCN(c2ccc3c(c2)Sc2cc(C(F)(F)F)cc(NC4CCN(CCN)CC4)c2N3)C1.Cl.Cl [compound 305]	H. pylori ATCC 43504	µg/mL	16
Cl.NC1CCCC(CNc2cc(C(F)(F)F)cc3c2Nc2ccc(N4CCCC4)cc2S3)C1 (stereo not shown) [compound 300]	H. pylori ATCC 43504	µg/mL	16

Please provide the recorded MIC for CCN(CC)c1ccc2c(c1)Sc1cc(C(F)(F)F)cc(NC3CCN(CCN)CC3)c1N2.Cl.Cl.Cl [compound 306] , tested on H. pylori ATCC 43504.
32

Moving on to CC1CCN(c2ccc3c(c2)Sc2cc(C(F)(F)F)cc(NC4CCN(CCN)CC4)c2N3)CC1.Cl.Cl [compound 307]
16

###

MIC tested on A. baumannii ATCC 17978: recorded values
Kindly provide the numeric value in µg/mL only, without the unit symbol.

Below are worked cases with known answers.
COMPOUND	MIC, µg/mL
NC1CCCC(C(=O)Nc2cc(C(F)(F)F)cc3c2Nc2ccc(-c4cc5ccccc5[nH]4)cc2S3)C1 (centres unmarked) [compound 242]	16
Cl.Cl.NCCN1CCC(Nc2cc(C(F)(F)F)cc3c2Nc2ccc(N4CCCC4)cc2S3)CC1 [compound 284]	8
CNCCCN1c2ccccc2Sc2cc(-c3cc4ccccc4[nH]3)ccc21 [compound 186]	16

Which MIC reading was recorded for the compound NCCN1CCC(Nc2cc(C(F)(F)F)cc3c2Nc2ccccc2S3)CC1 [compound 140] ?
8

Same question, NCCNC(=O)c1ccc2c(c1)Sc1cc(C(F)(F)F)cc(NC3CCN(CCN)CC3)c1N2 [compound 255] this time
128

Repeat for the following compound: NCCCN1c2ccccc2Sc2cc(-c3cc4ccccc4[nH]3)ccc21 [compound 150]
16

###

- Tested on: Escherichia coli (ATCC25922)
- METHOD SUMMARY: MIC, broth microdilution (CLSI), Escherichia coli ATCC25922
- ASSAY SETUP: ATCC25922, read-out: E. coli MIC, Table 15, NI = No inhibition
OBSERVATION TYPE: MIC (µg/mL)
Give the value, in units of µg/mL, as a plain number.

Completed entries (count: 3):
MOLECULE	STUDY SYSTEM	ENDPOINT RESULT
CC1CCN(c2ccc3c(c2)Sc2cc(C(F)(F)F)cc(NC4CCN(CCN)CC4)c2N3)CC1.Cl.Cl [compound 307]	Escherichia coli (ATCC25922)	4
Cl.Cl.NCCN1CCC(Nc2cc(C(F)(F)F)cc3c2Nc2ccc(Br)cc2S3)CC1 [compound 282]	Escherichia coli (ATCC25922)	8
FC(F)(F)c1cc(NC2CCCNC2)c2c(c1)Sc1ccccc1N2 (centres unmarked) [compound 172]	Escherichia coli (ATCC25922)	23

Please report the recorded MIC for NC[C@H]1CCC[C@H](CNc2cc(C(F)(F)F)cc3c2Nc2ccccc2S3)C1 [compound 189] .
52

What would you report for Cl.NCCNCCCNc1cc(C(F)(F)F)cc2c1Nc1ccc(N3CC4(CCC4)C3)cc1S2 [compound 347] ?
8
